biological target: Human CB2 receptors (Homo sapiens); experiment: In vitro signaling assay: inhibition of forskolin-induced cAMP production in human CB2 receptor expressing CHO cells; details: inhibition of 10 μM forskolin-induced cAMP production, human CB2 receptors expressed CHO cells, cAMP EIA
Sequence (P34972 whole entry): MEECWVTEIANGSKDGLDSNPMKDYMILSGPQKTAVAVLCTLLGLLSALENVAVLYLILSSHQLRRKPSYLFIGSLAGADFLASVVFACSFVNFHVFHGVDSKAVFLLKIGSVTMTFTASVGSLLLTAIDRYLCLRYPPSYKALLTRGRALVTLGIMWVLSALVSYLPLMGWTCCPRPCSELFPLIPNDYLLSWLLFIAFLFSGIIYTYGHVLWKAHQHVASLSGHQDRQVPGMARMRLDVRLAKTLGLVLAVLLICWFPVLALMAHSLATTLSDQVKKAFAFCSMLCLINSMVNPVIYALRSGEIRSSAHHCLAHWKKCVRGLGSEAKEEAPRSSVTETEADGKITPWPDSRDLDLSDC
pIC50: −log10 of the molar value.
metric-name: pIC50

1. CC1(C)Cc2ccccc2/C(=C/C(=O)C2CCCCC2)N1 [compound 1]
2. CC1(C)Cc2ccccc2/C(=C/C(=O)C2CCCCCC2)N1 [1(11)]
3. O=C(/C=C1\NC2(CCOCC2)Cc2ccccc21)c1ccccc1 [1(33)]
Order all 3 entries above by recorded pIC50, highest first, lowest last. Put the labels in the requested order and list them out.
2, 3, 1
